Cited source: ChEMBL document CHEMBL4689842

Listed compounds paired with reported Growth Rate
System: Fibroblast
TEST METHOD NOTES: Incucyte cell viability with human fibroblast; further: filed as whole numbers so only -1 and 0 and 1 occur
Assay type: toxicity, cell-based
MEASUREMENT CONDITIONS: 6 h, 10 µM, compound concentration 10 uM, replicate number 1, timepoint 6 hours
// no unit, no text: just the number

Please provide the recorded Growth Rate for O=C(Cc1ccc(-c2ccc(OCCN3CCOCC3)cc2)cn1)NCc1ccccc1 [TIRBANIBULIN] , tested on Fibroblast.
0

Please provide the recorded Growth Rate for CNc1cc(Oc2cc(C(=O)Nc3cc(N4CCN(C)CC4)cc(C(F)(F)F)c3)ccc2C)ncn1 , tested on Fibroblast.
0

Let's switch to this compound now.
Please provide the recorded Growth Rate for Cc1cc(C)c(S(=O)(=O)N(Cc2ccc(-c3cccc(S(C)(=O)=O)c3)cc2)Cc2ccc(C(F)(F)F)o2)c(C)c1 , tested on Fibroblast.
1

* * *

System: U2OS
TEST METHOD NOTES: Multiplex assay against U2OS
Type: toxicity, cell-based
MEASUREMENT CONDITIONS: human, 12 h, 1 µM, compound concentration 1 uM, replicate 1
Listed molecules paired with reported Population Normal (%)
Numbers only; they are read as %.

Worked cases, Population Normal (%) given:
Bench note: what Population Normal (%) did CNC(=O)c1ccc(Nc2nc(OC3CCCC3)c3c(-c4ccc5nc(C)oc5c4)c[nH]c3n2)c(OC)c1 show?
97

Bench note: what Population Normal (%) did CN([C@@H](Cc1ccc(OS(=O)(=O)c2cccc3cnccc23)cc1)C(=O)N1CCN(c2ccccc2)CC1)S(=O)(=O)c1cccc2cnccc12 show?
98

Bench note: what Population Normal (%) did CCN1CCN(c2ccc(Nc3cc(N(C)C(=O)Nc4c(Cl)c(OC)cc(OC)c4Cl)ncn3)cc2)CC1 show?
95

Bench note: what Population Normal (%) did O=C(Nc1ccc(Cl)cc1)Nc1cccc(-c2cccc(N3CCCC3)n2)c1 show?
89

Bench note: what Population Normal (%) did O=C1N/C(=N/c2ccccc2F)S/C1=C\c1ccc(C(=O)O)cc1 show?
90

Bench note: what Population Normal (%) did Cn1nc(C(F)(F)F)cc1-c1cnc(N2CCc3cc(S(=O)(=O)Nc4c(F)cc(Cl)cc4F)cc(N4CCCC4=O)c32)nc1 show?
95

Bench note: what Population Normal (%) did CCc1cccc(CC)c1NC(=O)c1nn(C)c2c1CCc1cnc(Nc3ccc(N4CCN(C)CC4)cc3OC)nc1-2 show?
91

Bench note: what Population Normal (%) did CN1C2CCC1CC(OC(c1ccc(F)cc1)c1ccc(F)cc1)C2.Cl (stereo unspecified) show?
95

***
Bench note: what Population Normal (%) did CCOc1cc(C(=O)N2CCC(N3CCN(C)CC3)CC2)ccc1Nc1ncc2c(n1)N(C1CCCC1)c1ccccc1C(=O)N2C show?
93

Bench note: what Population Normal (%) did CN(C)C(=O)C(CCN1CCC(O)(c2ccc(Cl)cc2)CC1)(c1ccccc1)c1ccccc1.Cl [LOPERAMIDE HYDROCHLORIDE] show?
95

* * *

Tested on: HEK-293T
TEST METHOD NOTES: Multiplex assay against HEK293T
Format: toxicity, cell-based
MEASUREMENT CONDITIONS: human, 12 h, 10 µM, compound concentration 10 uM, replicate 1
EXPERIMENTAL ENDPOINT: Population Pyknosed Nuclei (%)
Numbers only; they are read as %.

Please provide the recorded Population Pyknosed Nuclei (%) for O=C(Nc1ccc(-c2ccnc(Nc3ccc(N4CCOCC4)cc3)n2)cc1)[C@@H]1CCCN1 , tested on HEK-293T.
65

Please provide the recorded Population Pyknosed Nuclei (%) for CN1CCN(C(=O)C(C)(C)c2ccc(C(=O)Nc3cn4cc(-c5cc(C(C)(C)C)cc(C(C)(C)C)c5)ccc4n3)cc2)CC1 [T3-CLK-N] , tested on HEK-293T.
36

Please provide the recorded Population Pyknosed Nuclei (%) for O=C(Nc1ccc(Cl)cc1)Nc1cccc(-c2cccc(N3CCCC3)n2)c1 , tested on HEK-293T.
65

Let's switch to this compound now.
Please provide the recorded Population Pyknosed Nuclei (%) for COc1ccc(-c2ccc3c(N4CCOCC4)nc(N4C[C@@H](C)O[C@@H](C)C4)nc3n2)cc1CO [Ku-0063794] , tested on HEK-293T.
4

* * *

Listed compounds paired with reported Growth Rate
Test system: U2OS
TEST METHOD NOTES: Incucyte cell viability with U2OS; further: filed as whole numbers so only -1 and 0 and 1 occur
Format: toxicity, cell-based
MEASUREMENT CONDITIONS: human, 12 h, 10 µM, compound concentration 10 uM, replicate number 1, timepoint 12 hours
// no unit, no text: just the number

Bench note: what Growth Rate did CCN1CCN(Cc2ccc(Nc3ncc(F)c(-c4cc(F)c5nc(C)n(C(C)C)c5c4)n3)nc2)CC1.CS(=O)(=O)O show?
1

Bench note: what Growth Rate did COCC(=O)NC/C=C/c1ccc2ncnc(Nc3ccc(Oc4ccc(C)nc4)c(C)c3)c2c1 show?
1

Bench note: what Growth Rate did Cc1cnc(Nc2ccc(F)cc2Cl)nc1-c1c[nH]c(C(=O)N[C@H](CO)c2cccc(Cl)c2)c1 show?
0

Bench note: what Growth Rate did CC(=O)C1=C(C)N(c2cccc(C(F)(F)F)c2)C(=O)N[C@@H]1c1ccc(C#N)nc1 show?
0

Bench note: what Growth Rate did COc1cc2c(CCNC(C)=O)c[nH]c2cc1Cl show?
1

Bench note: what Growth Rate did CC(C)NC(=O)c1ccc(C#Cc2ccncc2)cn1 show?
1

Bench note: what Growth Rate did N#Cc1c[nH]c2c(C(=O)N3CCN(CCc4ccc(F)cc4)CC3)cccc12 show?
1

Bench note: what Growth Rate did COc1ccc(S(=O)(=O)N(CCO)c2ccccc2CN(C)C/C=C/c2ccc(Cl)cc2)cc1.O=P(O)(O)O show?
0

Let's switch to this compound now.
Bench note: what Growth Rate did Cc1c(C(=O)O)cc(-c2ccc(C3CCNCC3)cc2)c2ccc(-c3ccc(C(F)(F)F)cc3)cc12.Cl show?
1

* * *

Listed compounds paired with reported Population Normal (%)
Test system: Fibroblast
TEST METHOD NOTES: Multiplex assay against human fibroblast
Assay type: toxicity, cell-based
MEASUREMENT CONDITIONS: 48 h, 1 µM, compound concentration 1 uM, replicate 2
Numbers only; they are read as %.

Bench note: what Population Normal (%) did CCCS(=O)(=O)c1nc(NC2CC2)cc(-c2ccc3c(ccn3C3CC(C)(C)NC(C)(C)C3)c2)n1 show?
91

Bench note: what Population Normal (%) did O=C(Nc1ccc(-n2nc(-c3cccnc3)cc2C(F)(F)F)cn1)c1ccc(-c2ccccc2)c(F)c1 [BI 2049] show?
83

Bench note: what Population Normal (%) did Cl.Oc1ccc2c3c1O[C@H]1c4[nH]c5c(c4C[C@@]4(O)[C@@H](C2)N(CC2CC2)CC[C@]314)C[C@@]1(O)[C@H]2Cc3ccc(O)c4c3[C@@]1(CCN2CC1CC1)[C@H]5O4 show?
92

Bench note: what Population Normal (%) did CN1C2CCC1CC(OC(c1ccc(F)cc1)c1ccc(F)cc1)C2.Cl (configuration not stated) show?
88

Bench note: what Population Normal (%) did Cl.O=c1c2cccn2c2ccccc2n1CCCN1CCC(c2ccc(Cl)cc2)CC1 show?
88

Bench note: what Population Normal (%) did S=C(NCCCc1c[nH]cn1)NCCCN(Cc1ccc(Cl)c(Cl)c1)c1ccc(Br)cn1 show?
78

Bench note: what Population Normal (%) did O=C1N/C(=N/c2ccccc2F)S/C1=C\c1ccc(C(=O)O)cc1 show?
69

Bench note: what Population Normal (%) did Cc1cc(C)c(S(=O)(=O)N(Cc2ccc(-c3cccc(S(C)(=O)=O)c3)cc2)Cc2ccc(C(F)(F)F)o2)c(C)c1 show?
89

Bench note: what Population Normal (%) did CCc1cccc(CC)c1NC(=O)c1nn(C)c2c1CCc1cnc(Nc3ccc(C(=O)NC4CCN(C)CC4)cc3OC(F)(F)F)nc1-2 show?
88

Bench note: what Population Normal (%) did COc1cc(N2CCN(C)CC2)ccc1Nc1ncc2c(n1)N(C)c1ccccc1C(=O)N2C show?
92

***
Bench note: what Population Normal (%) did O=C(Nc1ccc(Cl)cc1)Nc1cccc(-c2cccc(N3CCCC3)n2)c1 show?
87

Bench note: what Population Normal (%) did CN(C)C(=O)C(CCN1CCC(O)(c2ccc(Cl)cc2)CC1)(c1ccccc1)c1ccccc1.Cl [LOPERAMIDE HYDROCHLORIDE] show?
87

Bench note: what Population Normal (%) did CN1CCC(=C2c3ccccc3CC(=O)c3sccc32)CC1.O=C(O)/C=C/C(=O)O [KETOTIFEN FUMARATE] show?
89

Bench note: what Population Normal (%) did O=C(Cc1ccc(-c2ccc(OCCN3CCOCC3)cc2)cn1)NCc1ccccc1 [TIRBANIBULIN] show?
89

Bench note: what Population Normal (%) did CCOc1cc(C(=O)N2CCC(N3CCN(C)CC3)CC2)ccc1Nc1ncc2c(n1)N(C1CCCC1)c1ccccc1C(=O)N2C show?
81

Bench note: what Population Normal (%) did Cc1ccc(C(=O)Nc2cccc(C(F)(F)F)c2)cc1Nc1nc(-c2cccnc2)nc2c1cnn2C show?
77

Bench note: what Population Normal (%) did Cc1cn(-c2cc(NC(=O)c3ccc(C)c(Nc4nccc(-c5cccnc5)n4)c3)cc(C(F)(F)F)c2)cn1 [NILOTINIB] show?
89
